# PROTOCOL: CLint (intrinsic clearance) assay, microsomal incubation
# Assay type: in vitro ADME, Human
# CONDITION_CONTEXT: human, liver microsomes, pH 7.4, human liver microsomes 0.5 mg/mL protein, NADPH, 37° C., up to 30 min
PROPERTY_LABEL: microsomal CLint at 0.8 μM
The answer consists of two parts: a number and, after it, its unit.

>>> result("CN1c2ccc(-c3cncc(Cl)c3N3CCC4(CC3)CC(=O)NN4)cc2CS1(=O)=O")
"27 µL/min/mg"
>>> result("Cn1ncc2cc(-c3cncc(Cl)c3N3CCC4(CC3)NC(=O)NC4=O)ccc21")
"15 µL/min/mg"
>>> result("Cn1ncc2ccc(-c3cncc(Cl)c3N3CCC4(CC3)CNC(=O)O4)cc21")
"13 µL/min/mg"

[in] Can you look up the measured microsomal CLint at 0.8 μM of O=C1NCC2(CCN(c3c(Cl)cncc3-c3ccc(-c4cnn([C@H]5CCC[C@@H]5O)c4)cc3)CC2)O1 (racemic) [Example 57] for me?
[out] 32 µL/min/mg

====

# PROTOCOL: CLint (intrinsic clearance) assay, microsomal incubation
# Assay type: in vitro ADME, Human
# CONDITION_CONTEXT: human, liver microsomes, pH 7.4, human liver microsomes 0.5 mg/mL protein, NADPH, 37° C., up to 30 min
# Experimental: 2. CLint (Intrinsic Clearance) Assay A Tecan Genesis workstation (RWS ASY 150/8) was used to perform the microsomal incubations. Analysis was carried out using a Waters ACQUITY UPLC system coupled to an ABSciex API3000 mass spectrometer. […] The metabolic stability of each compound was determined by measurement of the change in LC-MS/MS peak area over time. […] The intrinsic clearance (CLint) of each compound was then calculated according to the formula: CLint(μL/min/mg protein)=k1000/protein concentration. […]
As shown below, each of these compounds has a reported microsomal CLint at 0.8 μM value.
All answers are understood in µL/min/mg, so give the number only.

Record excerpt, results attached:
>>> numeric_result("Cn1ncc2cc(-c3cncc(Cl)c3N3CCC4(CC3)CNC(=O)O4)ccc21")
23
>>> numeric_result("CNC(=O)c1ccc(-c2cncc(Cl)c2N2CCC3(CCNC3=O)CC2)cc1")
27

Then there is this compound:
[in] Param item = CCC1=NNC(=O)C12CCN(c1c(Cl)cncc1-c1ccc3c(c1)CS(=O)(=O)N3C)CC2 ; retrieve measured microsomal CLint at 0.8 μM.
[out] 70

====

# PROTOCOL: CLint (intrinsic clearance) assay, microsomal incubation
# Assay type: in vitro ADME, Human
# CONDITION_CONTEXT: human, liver microsomes, pH 7.4, human liver microsomes 0.5 mg/mL protein, NADPH, 37° C., up to 30 min
PROPERTY_LABEL: microsomal CLint at 0.8 μM

>>> result("O=C1NCC2(CCN(c3c(Cl)cncc3-c3ccc4c(c3)CS(=O)(=O)C4)CC2)O1 [Example 48]")
"23 µL/min/mg"
>>> result("CN1C(=O)Cc2ccc(-c3cncc(Cl)c3N3CCC(N)(C(N)=O)CC3)cc21 [Example 73]")
"17 µL/min/mg"
>>> result("COCC1(C(N)=O)CCN(c2c(Cl)cncc2-c2ccc3c(c2)CS(=O)(=O)N3C)CC1 [Example 77]")
"75 µL/min/mg"
>>> result("O=C1Cc2ccc(-c3cncc(Cl)c3N3CCC4(CCNC4=O)CC3)cc2N1 [Example 64]")
"49 µL/min/mg"
>>> result("Cn1cc(-c2ccc(-c3cncc(Cl)c3N3CCC4(CC3)NCNC4=O)cc2)cn1 [Example 88]")
"< 10 µL/min/mg"

[in] Any idea what its microsomal CLint at 0.8 μM is? The compound is O=C1CCc2cc(-c3cncc(Cl)c3N3CCC4(CCNC4=O)CC3)cnc2N1 [Example 93]
[out] 48 µL/min/mg

[in] Which measured microsomal CLint at 0.8 μM value corresponds to Cn1ncc2ccc(-c3cncc(Cl)c3N3CCC4(CC3)CC(=O)NC4=O)cc21 [Example 66] ?
[out] < 10 µL/min/mg
